target.desc: T1, 4H730-bN
T1 chain: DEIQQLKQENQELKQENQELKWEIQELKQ
measurement.description: two-hybrid library CCNG1;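 further: natural log of median RNA to DNA barcode read ratio; higher means stronger binding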
Give 1 when the value for interaction score is at least -0.5. Give 0 when it is less.

binder	class
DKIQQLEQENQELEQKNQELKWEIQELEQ [4H2233-bN]	0
DKNQQLEQENQELKQKIQELEWEIQELEQ [4H3297-bN]	0
DEIQQLEQEIQELEQKNQELEWKNQELKQ [4H56-bN]	1
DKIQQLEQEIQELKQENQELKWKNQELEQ [4H2143-bN]	1
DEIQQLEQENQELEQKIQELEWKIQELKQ [4H166-bN]	0
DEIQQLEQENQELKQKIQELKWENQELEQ [4H235-bN]	0

Data provenance is paper PMC10397247.
